- Test system: SK-OV-3 ovarian
- experiment-notes: NCI-60 one-dose screen, 48 h (100 = growth as untreated, 0 = no growth, -100 = all killed)
- condition-context: 10 µM unless noted
The panel holds about 83,000 compounds, 20% with a hit somewhere; the sample as a whole holds those more often.
Please mark fulfilled if the recorded growth is equal to or greater than 90%, and not fulfilled if it falls below.

{"molecule": "CCCCNc1cc(C(=O)O)cc(S(N)(=O)=O)c1Oc1ccccc1", "experimental-system": "SK-OV-3 ovarian", "cat": "fulfilled"}
{"molecule": "C=C1C(=O)O[C@H]2[C@H]1CC/C(COC(=O)n1ccnc1C)=C\\CC[C@@]1(C)O[C@@H]21", "experimental-system": "SK-OV-3 ovarian", "cat": "not fulfilled"}
{"molecule": "OCc1cn(-c2ccc(Cl)cc2)nc1-c1ccc(O)cc1", "experimental-system": "SK-OV-3 ovarian", "cat": "fulfilled"}
{"molecule": "O=C(Nc1cccc(-n2ccc3c(NC(=O)c4ccccc4)nccc32)c1)c1cccc(C(F)(F)F)c1", "experimental-system": "SK-OV-3 ovarian", "cat": "not fulfilled"}
{"molecule": "CC(=O)Cc1cccnc1", "experimental-system": "SK-OV-3 ovarian", "cat": "fulfilled"}

Does the reported growth for COc1ccc(-c2nnc(SCC(=O)Nc3ccc(C(=O)/C=C/c4ccc(OC)c(OC)c4)cc3)o2)cc1 fall at or above the 90% mark?
not fulfilled

Identify whether the reported growth of the following molecule is 90% or greater: COC1=C(OC)C(=O)C=CC1=O
fulfilled

Identify whether the reported growth of the following molecule is 90% or greater: c1ccc(-c2nc3sc(C(c4ccccc4)c4ccccc4)nn3c2-c2ccccc2)cc1
fulfilled

Please tell me: is the molecule CN1CCN(CC(=O)N(C)c2ccc(N=C(c3ccccc3)c3c(O)[nH]c4ccc(C#N)cc34)cc2)CC1 at or over 90% in terms of growth?
not fulfilled

# bool: growth of CCC(N)(C(=O)O)c1ccc(F)cc1 (stereo not given) >= 90%
fulfilled

###

- System: HCT-116 colon
- experiment-notes: NCI-60 one-dose screen, 48 h (100 = growth as untreated, 0 = no growth, -100 = all killed)
- condition-context: 10 µM unless noted
Compounds without any hit were thinned out: in the full panel of roughly 83,000, 20% have a hit. Activity calls are given as the source filed them. Rule for the calls: active = growth percent below 10; inactive = the rest.
readout-type: growth

Below: 4 molecules and their reported growth.
{"molecule": "Cc1c(F)cccc1NC(=O)c1sc2nc3c(cc2c1N)CCCCC3", "experimental-system": "HCT-116 colon", "readout-type": "growth", "value-measured": "49.8% (inactive)"}
{"molecule": "COc1cc(C(=O)C[n+]2ccccc2)ccc1OC(C)=O", "experimental-system": "HCT-116 colon", "readout-type": "growth", "value-measured": "87.6% (inactive)"}
{"molecule": "CCCC(=O)Oc1ccc(/C(=C(\\C)c2ccc(OC)cc2)c2ccc(OCCN3CCCCC3)cc2)cc1", "experimental-system": "HCT-116 colon", "readout-type": "growth", "value-measured": "55.7% (inactive)"}
{"molecule": "COc1ccc(/C=C2/C(=O)Nc3cc(Cl)c(-c4csc(N)n4)cc32)cc1", "experimental-system": "HCT-116 colon", "readout-type": "growth", "value-measured": "36.2% (inactive)"}

We now examine a further molecule.
Please look at this molecule and report its growth: CC12CCC3C(CCC4CC(O)CCC43C)C1C/C(=C/O)C(=O)O2 (stereo not given)
104% (inactive)
